- Target system: RARβ (Homo sapiens, UniProt P10826)
- Sequence (P10826 whole entry, species assumed): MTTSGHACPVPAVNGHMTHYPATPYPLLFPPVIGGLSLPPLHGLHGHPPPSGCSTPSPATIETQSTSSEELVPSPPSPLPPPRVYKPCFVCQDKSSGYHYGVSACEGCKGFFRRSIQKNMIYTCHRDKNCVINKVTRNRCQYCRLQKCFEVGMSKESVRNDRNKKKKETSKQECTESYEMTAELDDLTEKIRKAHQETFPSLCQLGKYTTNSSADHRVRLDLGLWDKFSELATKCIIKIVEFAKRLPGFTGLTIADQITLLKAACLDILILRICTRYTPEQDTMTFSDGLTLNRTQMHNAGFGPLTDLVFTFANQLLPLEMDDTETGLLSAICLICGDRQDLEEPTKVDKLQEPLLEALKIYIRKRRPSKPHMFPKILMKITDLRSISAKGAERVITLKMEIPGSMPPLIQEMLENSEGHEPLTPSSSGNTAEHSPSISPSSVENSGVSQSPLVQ
Reported metric: Kd (nM)
Write the number in nM without appending the unit.

State the recorded Kd for this entry: CC1(C)CC(C)(C)c2cc(C#Cc3ccc(C(=O)O)cc3)ccc2O1
1100

###

- Target system: RARγ (Homo sapiens, UniProt P13631)
- Sequence (P13631 185-454 limits assumed): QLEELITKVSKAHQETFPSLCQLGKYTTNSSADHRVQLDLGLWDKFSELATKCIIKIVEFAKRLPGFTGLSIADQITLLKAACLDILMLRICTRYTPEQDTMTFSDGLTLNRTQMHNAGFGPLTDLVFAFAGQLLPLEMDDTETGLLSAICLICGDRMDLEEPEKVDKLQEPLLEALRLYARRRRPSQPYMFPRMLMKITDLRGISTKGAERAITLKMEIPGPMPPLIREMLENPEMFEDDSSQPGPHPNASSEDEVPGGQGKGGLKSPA
- Assay notes: chimeric receptor transactivation assay, RARγ
- Study conditions: EC50 line of EC50/(EFFICACY)/Kd, read-out: RAR γ EC50
Reported metric: pEC50
The meaning of pEC50 here: minus log10 of the concentration in molar units.

- Compound string: "CC1(C)CCSc2ccc(C#Cc3ccc(CCC(=O)O)cc3)cc21"
  Reported metric: "pEC50"
  Assay value: 7.82

I would be grateful if you could share the reported pEC50 for CC1(C)CC(C)(C)c2cc(C#Cc3ccc(C(=O)O)cc3)ccc2O1 .
6.74

###

- Target system: P450RAI-1 (Homo sapiens, UniProt O43174)
- Sequence (O43174 1-497): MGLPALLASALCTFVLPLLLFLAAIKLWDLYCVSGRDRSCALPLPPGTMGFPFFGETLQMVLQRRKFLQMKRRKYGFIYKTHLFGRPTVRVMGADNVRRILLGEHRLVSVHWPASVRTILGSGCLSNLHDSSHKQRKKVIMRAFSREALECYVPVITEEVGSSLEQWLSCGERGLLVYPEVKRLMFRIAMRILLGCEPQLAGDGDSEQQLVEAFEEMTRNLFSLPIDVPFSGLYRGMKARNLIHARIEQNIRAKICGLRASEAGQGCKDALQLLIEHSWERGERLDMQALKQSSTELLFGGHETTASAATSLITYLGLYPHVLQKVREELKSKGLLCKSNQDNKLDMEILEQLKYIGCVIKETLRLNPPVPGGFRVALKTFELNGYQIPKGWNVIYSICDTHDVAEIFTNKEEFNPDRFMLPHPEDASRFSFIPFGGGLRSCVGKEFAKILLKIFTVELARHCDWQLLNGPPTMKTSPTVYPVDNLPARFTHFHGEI
- Assay notes: P450RAI-1 cell-based inhibitor assay (intact HeLa)
- Study conditions: read-out: P450RAI INHIBITION DATA INTACT HELA IC50
- Experimental: P450RAI-1 Cell-Based Inhibitor Assay: P450RAI-1 stably transfected HeLa cells are maintained in […] tissue culture dishes in Modified Eagle's Medium (MEM) containing 10% Fetal Bovine Serum (FBS) and 100 μg/ml hygromycin. Exponentially growing cells are harvested by incubating in trypsin. […] The water soluble radioactivity is quantified using β-scintillation counter. […]
Values of IC50 strictly less than 3 µM map to Met, and values of at least 3 µM map to Not met.

- Compound: "CC1=C(/C=C/C#Cc2ccc(C(=O)O)s2)C(C)(C)CCC1 [Compound 245]"
  Discrete label: "Not met"
- Compound: "CC1(C)CCC(C)(C)c2c1cc(O)c(C(=O)Nc1ccc(C(=O)O)cc1)c2F [Compound 246]"
  Discrete label: "Not met"
- Compound: "CC1(C)CCC(C)(C)c2cc(C#Cc3ccc(C(=O)O)cc3)ccc21 [Compound 216]"
  Discrete label: "Not met"
- Compound: "CC1(C)CC(C)(C)c2cc(C(=O)Nc3ccc(C(=O)O)c(F)c3)cc(C(F)(F)F)c2O1 [Compound 205]"
  Discrete label: "Met"
- Compound: "CC(C)(C)c1cc(C#Cc2ccc(C(=O)O)cc2)cc(Cl)c1O [Compound 209]"
  Discrete label: "Met"
- Compound: "CC1(C)CC(C)(C)c2cc(C(=O)Oc3ccc(C(=O)O)cc3)ccc2O1 [Compound 231]"
  Discrete label: "Not met"
- Compound: "CC1=C(/C=C/C#Cc2ccc(C(=O)O)cc2)C(C)(C)CCC1(C)C [Compound 212]"
  Discrete label: "Not met"

Turning now to a further record.
Please determine if Cc1cc(C(=O)Nc2ccc(C(=O)O)c(F)c2)cc2c1OC(C)(C)CC2(C)C [Compound 220] is below 3 µM in terms of IC50.
Met

###

- Target system: RARα (Homo sapiens)
- Sequence (P10276 183-417 limits assumed): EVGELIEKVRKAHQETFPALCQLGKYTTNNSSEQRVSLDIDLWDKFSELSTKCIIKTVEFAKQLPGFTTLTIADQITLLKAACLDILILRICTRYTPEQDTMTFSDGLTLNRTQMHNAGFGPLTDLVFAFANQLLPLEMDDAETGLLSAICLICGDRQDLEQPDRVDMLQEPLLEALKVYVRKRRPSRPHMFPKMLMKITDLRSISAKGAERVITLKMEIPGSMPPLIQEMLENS
- Assay notes: chimeric receptor transactivation assay, RARα
- Study conditions: EC50 line of EC50/(EFFICACY)/Kd, read-out: RAR α EC50
Reported metric: pEC50
Please express pEC50 as -log10 of the molar concentration.

Quick one: pEC50 for CC1(C)CCSc2ccc(C#Cc3ccc(CCC(=O)O)cc3)cc21 ?
7.05

###

Reported pIC50 values follow for various molecules
- Target system: UniProtKB O43174
- Sequence (O43174 1-497): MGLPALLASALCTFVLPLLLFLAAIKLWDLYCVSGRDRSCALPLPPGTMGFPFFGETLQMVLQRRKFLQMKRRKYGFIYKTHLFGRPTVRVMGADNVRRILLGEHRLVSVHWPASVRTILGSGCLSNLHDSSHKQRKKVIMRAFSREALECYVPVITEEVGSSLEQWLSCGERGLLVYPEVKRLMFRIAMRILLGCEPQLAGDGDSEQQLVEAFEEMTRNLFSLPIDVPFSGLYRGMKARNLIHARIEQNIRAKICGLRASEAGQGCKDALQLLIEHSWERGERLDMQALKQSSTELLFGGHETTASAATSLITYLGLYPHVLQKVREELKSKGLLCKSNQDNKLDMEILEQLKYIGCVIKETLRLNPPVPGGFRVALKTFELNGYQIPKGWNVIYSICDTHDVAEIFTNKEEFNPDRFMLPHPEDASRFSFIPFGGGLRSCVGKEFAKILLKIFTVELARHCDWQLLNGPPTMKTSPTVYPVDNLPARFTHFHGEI
- Assay notes: P450RAI-1 cell-based inhibitor assay (intact HeLa)
- Study conditions: read-out: P450RAI INHIBITION DATA INTACT HELA IC50
The read-out pIC50 is expressed as -log10 of concentration in moles per litre.

Solved entries (count: 5):
- Molecule: "CC1=C(/C=C/C#Cc2ccc(C(=O)O)cc2)C(C)(C)CCC1 [Compound 217]"
  pIC50: 5.20
- Molecule: "CC1(C)CC(C)(C)c2cc(C(=O)Nc3ccc(C(=O)O)c(F)c3)cc(-c3ccccc3)c2O1 [Compound 224]"
  pIC50: 5.26
- Molecule: "CC1(C)CCC(C)(C)c2cc(C#Cc3ccc(C(=O)O)c(F)c3)ccc21 [Compound 230]"
  pIC50: 5.29
- Molecule: "O=C(O)c1ccc2cc(-c3ccc(O)c(C45CC6CC(CC(C6)C4)C5)c3)ccc2c1 [Compound 233]"
  pIC50: 5.89
- Molecule: "CC1(C)CCCc2cc(C#Cc3ccc(C(=O)O)cc3)ccc21 [Compound 218]"
  pIC50: 5.47

Next molecule, pIC50 to be filled in.
Need pIC50 of CC1(C)CCC(C)(C)c2cc(C(=O)Nc3ccc(C(=O)O)c(F)c3)ccc21 [Compound 237] , thanks.
5.17

###

- Target system: P450RAI-1 (Homo sapiens, UniProt O43174)
- Assay notes: P450RAI-1 cell-based inhibitor assay (intact HeLa)
- Study conditions: read-out: P450RAI INHIBITION DATA INTACT HELA IC50
Consider the following molecules and their measured IC50 readings.
Record the value in µM, omitting the unit from your answer.

- Molecule: "CC1(C)CC(C)(C)c2cc(C#Cc3ccc(C(=O)O)cc3)ccc2O1 [Compound 201]"
  Target system: "P450RAI-1 (Homo sapiens, UniProt O43174)"
  IC50 / µM: 0.52
- Molecule: "Cc1cc(C(=O)Nc2ccc(C(=O)O)cc2)cc2c1OC(C)(C)CC2(C)C [Compound 227]"
  Target system: "P450RAI-1 (Homo sapiens, UniProt O43174)"
  IC50 / µM: 1.3
- Molecule: "CC1(C)CCC(O)c2ccc(C#Cc3ccc(C(=O)O)cc3)cc21 (centres unmarked) [Compound 232]"
  Target system: "P450RAI-1 (Homo sapiens, UniProt O43174)"
  IC50 / µM: 4.2

Could you now consider this next molecule?
Form: Entry = CC1=C(/C=C/C#Cc2ccc(C(=O)O)cc2)C(C)(C)CCS1 [Compound 219] | System = P450RAI-1 (Homo sapiens, UniProt O43174) | IC50 = ____
3.2

###

- Target system: P450RAI-1 (Homo sapiens, UniProt O43174)
- Sequence (O43174 1-497): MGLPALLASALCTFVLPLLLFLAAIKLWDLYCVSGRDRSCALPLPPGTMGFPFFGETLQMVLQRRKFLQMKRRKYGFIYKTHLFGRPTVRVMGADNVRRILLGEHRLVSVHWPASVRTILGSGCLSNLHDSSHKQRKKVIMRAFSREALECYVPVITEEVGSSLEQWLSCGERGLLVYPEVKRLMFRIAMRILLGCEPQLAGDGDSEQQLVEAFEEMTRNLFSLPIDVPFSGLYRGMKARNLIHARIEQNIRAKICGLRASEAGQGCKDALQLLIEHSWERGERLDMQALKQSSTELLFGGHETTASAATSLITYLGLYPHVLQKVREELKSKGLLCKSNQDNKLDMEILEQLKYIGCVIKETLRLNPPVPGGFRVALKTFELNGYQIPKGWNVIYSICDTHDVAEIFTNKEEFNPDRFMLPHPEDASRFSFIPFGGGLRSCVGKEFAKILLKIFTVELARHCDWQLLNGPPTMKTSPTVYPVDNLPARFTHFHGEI
- Assay notes: P450RAI-1 cell-based inhibitor assay (intact HeLa)
- Study conditions: read-out: P450RAI INHIBITION DATA INTACT HELA IC50
Reported metric: IC50 (µM)
Form entry: value (µM) — number only.

- Compound string: "CC(C)(C)c1cc(C#Cc2ccc(C(=O)O)cc2)cc(C(C)(C)C)c1O"
  Quantity unit: "µM"
  IC50: 7
- Compound string: "CC1(C)CCSc2ccc(C#Cc3ccc(CC(=O)O)cc3)cc21"
  Quantity unit: "µM"
  IC50: 0.6
- Compound string: "CC1(C)CC(C)(C)c2cc(C(=O)Nc3ccc(C(=O)O)c(F)c3)cc(C3CC3)c2O1"
  Quantity unit: "µM"
  IC50: 0.7

What does the record list as IC50 for CC1(C)CC(C)(C)c2cc(C(=O)Nc3ccc(C(=O)O)c(F)c3)ccc2O1 ?
6
